Listing: activity remaining of selected molecules
# System: Aerobactin synthetase IucA (Klebsiella pneumoniae hvKP1)
# procedure details: Biochemical IucA enzyme inhibition primary screen of the Spectrum library (AID 1346200);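 also: 100% = wells without compound and 0% = wells lacking enzyme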
# experimental setup: malachite green pyrophosphate, A620, at 8 µM, active compounds read low
Active and inactive are the calls of the source. No rule for the calls is given here.
endpoint name: activity remaining

molecule="CC(=O)Oc1c2c(c3c(c1CC=C(C)C)O[C@]14C(=C[C@@H]5CC1C(C)(C)OC4(C/C=C(\\C)C(=O)O)C5=O)C3=O)OC(C)(CCC=C(C)C)C=C2 (some centres undefined)" endpoint_name="activity remaining" result="112% (inactive)"
molecule="C=C1C2CC[C@@]3(C)[C@H](c4ccoc4)OC(=O)C[C@]13O[C@H]1CC(=O)C(C)(C)C(CC(=O)OC)C21C (some centres undefined)" endpoint_name="activity remaining" result="124% (inactive)"
molecule="COC(=O)C1=CO[C@@H](C)[C@@H]2CN3CC[C@@]4(C(=O)Nc5ccccc54)[C@@H]3CC12 (some centres undefined)" endpoint_name="activity remaining" result="107% (inactive)"
molecule=NC(N)=N/N=C\c1c(Cl)cccc1Cl endpoint_name="activity remaining" result="97% (inactive)"

---

# test system: Protein kinase 7 (PK7), Plasmodium falciparum 3D7 (PF3D7_0213400)
# procedure details: inhibition of Plasmodium PK7 catalytic activity – biochemical, TCAMS antimalarial set, Kinase-Glo luminescence (AID 1159587)
# experimental setup: recombinant PfPK7, Kinase-Glo ATP depletion luminescence
Active and inactive are the calls of the source. The rule behind the calls is not given here.
endpoint name: outcome

molecule="COC(=O)c1ccc(CC(C)NCC(O)c2ccccc2Cl)cc1 (stereo not given)" test_system="Protein kinase 7 (PK7), Plasmodium falciparum 3D7 (PF3D7_0213400)" result=inactive
molecule=CCCCCCC(C)(C)c1cc(O)c2c3c(c(=O)oc2c1)CCN(Cc1ccccc1)C3 test_system="Protein kinase 7 (PK7), Plasmodium falciparum 3D7 (PF3D7_0213400)" result=inactive
molecule="CC(Cc1ccc(OCCOc2ccccc2)cc1)NCC(O)c1cccc(C(F)(F)F)c1 (stereo not given)" test_system="Protein kinase 7 (PK7), Plasmodium falciparum 3D7 (PF3D7_0213400)" result=inactive
molecule="Oc1cccc(C2CCCN(CCc3c[nH]c4ccccc34)C2)c1 (stereo not given)" test_system="Protein kinase 7 (PK7), Plasmodium falciparum 3D7 (PF3D7_0213400)" result=inactive
molecule=CSc1ccc(C[C@@H](C)NC[C@H](O)c2cccc(Cl)c2)cc1 test_system="Protein kinase 7 (PK7), Plasmodium falciparum 3D7 (PF3D7_0213400)" result=inactive
molecule=CCOc1ccc(CN(CCc2ccc3c(c2)OCO3)Cc2cc(OC)ccc2O)cc1 test_system="Protein kinase 7 (PK7), Plasmodium falciparum 3D7 (PF3D7_0213400)" result=inactive
molecule="COc1ccc2[nH]cc(C3C[C@H]4CC[C@@H](C3)N4CCC3CCN(C(=O)/C=C/c4ccc(Cl)c(Cl)c4)CC3)c2c1 (stereo not given in full)" test_system="Protein kinase 7 (PK7), Plasmodium falciparum 3D7 (PF3D7_0213400)" result=inactive
molecule=CC[C@H]1CN2CCc3cc(OC)c(OC)cc3[C@@H]2C[C@@H]1C[C@H]1NCCc2c1cc(OC)c(O)c2Cl test_system="Protein kinase 7 (PK7), Plasmodium falciparum 3D7 (PF3D7_0213400)" result=inactive
molecule=CN(C)c1cccc(NC(=O)N[C@H]2N=C(c3ccccc3)c3ccccc3N(CC(=O)N3CCCC3)C2=O)c1 test_system="Protein kinase 7 (PK7), Plasmodium falciparum 3D7 (PF3D7_0213400)" result=inactive
molecule="COC(=O)c1ccc(CC(C)NCC(O)c2ccc(F)c(Cl)c2)cc1 (stereo not given)" test_system="Protein kinase 7 (PK7), Plasmodium falciparum 3D7 (PF3D7_0213400)" result=inactive
molecule="COC(=O)c1ccc(CC(C)NCC(O)c2cccc(Oc3cccc(C(F)(F)F)c3)c2)cc1 (stereo not given)" test_system="Protein kinase 7 (PK7), Plasmodium falciparum 3D7 (PF3D7_0213400)" result=inactive
molecule=CCOC(=O)c1c(C)n(C2CCCCCC2)c2cc(Br)c(O)cc12 test_system="Protein kinase 7 (PK7), Plasmodium falciparum 3D7 (PF3D7_0213400)" result=inactive
molecule=CN(c1ccnc(Nc2ccc(CS(C)(=O)=O)cc2)n1)C1CCN(Cc2ccccc2)CC1 test_system="Protein kinase 7 (PK7), Plasmodium falciparum 3D7 (PF3D7_0213400)" result=inactive
molecule="COC(=O)c1ccc(CC(C)NCC(O)c2cccc(SC(F)(F)F)c2)cc1 (stereo not given)" test_system="Protein kinase 7 (PK7), Plasmodium falciparum 3D7 (PF3D7_0213400)" result=inactive
molecule=CCN1CC[C@]2(c3cccc(OC)c3)Cc3nc4ccccc4c(-c4ccccc4)c3C[C@H]2C1 test_system="Protein kinase 7 (PK7), Plasmodium falciparum 3D7 (PF3D7_0213400)" result=inactive
molecule=CC(=O)Nc1ccc(OCCN(CC(F)(F)F)c2ccc(C#N)cc2C(F)(F)F)cc1 test_system="Protein kinase 7 (PK7), Plasmodium falciparum 3D7 (PF3D7_0213400)" result=inactive
molecule=CCN1CC=C(c2c[nH]c3ccccc23)CC1 test_system="Protein kinase 7 (PK7), Plasmodium falciparum 3D7 (PF3D7_0213400)" result=inactive
molecule="COc1cccc(CC(C)NCC(O)c2cccc(Cl)c2)c1 (stereo not given)" test_system="Protein kinase 7 (PK7), Plasmodium falciparum 3D7 (PF3D7_0213400)" result=inactive
molecule=O=C(c1cc(C(F)(F)F)cc(C(F)(F)F)c1)N1CC[C@H](CCN2CCC3(CC2)C(=O)NCN3c2ccccc2)C[C@H]1Cc1ccc(Cl)c(Cl)c1 test_system="Protein kinase 7 (PK7), Plasmodium falciparum 3D7 (PF3D7_0213400)" result=inactive
molecule=C[C@H](Cc1ccc(OCCCCCCOc2ccccc2)cc1)NC[C@@H](O)c1cc(Br)no1 test_system="Protein kinase 7 (PK7), Plasmodium falciparum 3D7 (PF3D7_0213400)" result=inactive
